- systemUnderTest: human pancreas Glucokinase (GK) (Homo sapiens)
- Construct: (His)6; made in house; host or cells: Escherichia coli
- methodSummary: Glucokinase enzyme assay, Pancreas GK data
- Assay type: biochemical
- experimentalSetup: concentration producing 100% activation above vehicle control
assayMetric: EC100% (µM)

Completed entries (count: 3):
compound	number
O=C(CSC1c2ccccc2C(=O)N1Cc1ccc(OC(F)(F)F)cc1)Nc1ccccn1 (centres unmarked)	6.9
O=C(CSC1c2ccccc2C(=O)N1Cc1ccc(F)cc1)Nc1ccc(C(=O)O)cn1 (centres unmarked)	6.1
COc1ccc(CN2C(=O)c3ccccc3C2SCC(=O)Nc2ccccn2)cc1 (centres unmarked)	0.86

[P] O=C(CSC1c2ccccc2C(=O)N1Cc1ccc2sccc2c1)Nc1ccccn1 (centres unmarked)
[Q] Cc1[nH]c2ccc(CN3C(=O)c4ccccc4C3SCC(=O)Nc3ccccn3)cc2c1C (centres unmarked)
[R] COc1ccc(CN2C(=O)c3c(F)ccc(F)c3C2SCC(=O)Nc2ccc(C(=O)O)cn2)cc1OC (centres unmarked)
[S] O=C(CSC1c2ccccc2C(=O)N1Cc1ccc2c(c1)OCO2)Nc1ccccn1 (centres unmarked)
Task: Place the items in sequence of falling EC100%. Would you mind listing the labels in the order requested?
Output: S, P, Q, R

====

- systemUnderTest: human pancreas Glucokinase (GK) (Homo sapiens, UniProt P35557)
- Construct: (His)6
- methodSummary: Glucokinase enzyme assay, Pancreas GK data
- experimentalSetup: concentration producing 50% activation above vehicle control
assayMetric: EC50 (nM)

For orientation, consider the following solved cases.
compound	systemUnderTest	readoutUnit	EC50
COc1ccc(CN2C(=O)c3ccccc3C2SCC(=O)Nc2ccc(C(=O)O)cn2)cc1 (stereo not drawn) [Compound 55]	human pancreas Glucokinase (GK) (Homo sapiens, UniProt P35557)	nM	1350
O=C(CSC1c2ccccc2C(=O)N1Cc1cccc2ccccc12)Nc1ccccn1 (stereo not drawn) [Compound 43]	human pancreas Glucokinase (GK) (Homo sapiens, UniProt P35557)	nM	4000
O=C(CSC1c2ccccc2C(=O)N1Cc1ccc(-n2cccc2)cc1)Nc1ccccn1 (stereo not drawn) [Compound 46]	human pancreas Glucokinase (GK) (Homo sapiens, UniProt P35557)	nM	800
Cc1ccc2c(c1)C(OCC(=O)Nc1nccs1)N(Cc1ccccc1)C2=O (stereo not drawn) [Compound 60]	human pancreas Glucokinase (GK) (Homo sapiens, UniProt P35557)	nM	7600
Cc1ccc2c(c1)C(OCC(=O)Nc1ccccn1)N(Cc1ccccc1)C2=O (stereo not drawn) [Compound 61]	human pancreas Glucokinase (GK) (Homo sapiens, UniProt P35557)	nM	26000
O=C(CSC1c2ccccc2C(=O)N1Cc1ccc2c(c1)OCO2)Nc1ccccn1 (stereo not drawn) [Compound 41]	human pancreas Glucokinase (GK) (Homo sapiens, UniProt P35557)	nM	2800

[P] O=C(CSC1c2ccccc2C(=O)N1Cc1ccc(N2CCCC2=O)cc1)Nc1ccccn1 (stereo not drawn) [Compound 40]
[Q] O=C(CSC1c2ccccc2C(=O)N1Cc1ccc(F)cc1)Nc1ccc(C(=O)O)cn1 (stereo not drawn) [Compound 54]
Task: Given P and given Q , which shows the smaller recorded EC50? Please identify the chosen entry by its label.
Output: Q

====

- systemUnderTest: human pancreas Glucokinase (GK) (Homo sapiens, UniProt P35557)
- Construct: (His)6; made in house; host or cells: Escherichia coli
- methodSummary: Glucokinase enzyme assay, Pancreas GK data
- Type: biochemical
- experimentalSetup: compound 50 μM, percentage increase in GK activity above vehicle control, 12 mM glucose
assayMetric: activation at 50 µM (%)

compound	assayMetric	readoutUnit	number
COc1ccc(CN2C(=O)c3c(F)ccc(F)c3C2SCC(=O)Nc2ccc(C(=O)O)cn2)cc1OC (stereo not shown) [Compound 57]	activation at 50 µM	%	258

[P] O=C(CSC1c2ccccc2C(=O)N1Cc1ccc2sccc2c1)Nc1ccccn1 (stereo not shown) [Compound 44]
[Q] O=C(CSC1c2ccccc2C(=O)N1Cc1ccc(OC(F)(F)F)cc1)Nc1ccccn1 (stereo not shown) [Compound 48]
Task: Could you check which of P and Q has a smaller value for activation at 50 µM? Please respond with the label that marks your chosen entry.
Output: P

====

- systemUnderTest: human pancreas Glucokinase (GK) (Homo sapiens)
- Construct: (His)6; made in house; host or cells: Escherichia coli
- Sequence (P35557 1-465): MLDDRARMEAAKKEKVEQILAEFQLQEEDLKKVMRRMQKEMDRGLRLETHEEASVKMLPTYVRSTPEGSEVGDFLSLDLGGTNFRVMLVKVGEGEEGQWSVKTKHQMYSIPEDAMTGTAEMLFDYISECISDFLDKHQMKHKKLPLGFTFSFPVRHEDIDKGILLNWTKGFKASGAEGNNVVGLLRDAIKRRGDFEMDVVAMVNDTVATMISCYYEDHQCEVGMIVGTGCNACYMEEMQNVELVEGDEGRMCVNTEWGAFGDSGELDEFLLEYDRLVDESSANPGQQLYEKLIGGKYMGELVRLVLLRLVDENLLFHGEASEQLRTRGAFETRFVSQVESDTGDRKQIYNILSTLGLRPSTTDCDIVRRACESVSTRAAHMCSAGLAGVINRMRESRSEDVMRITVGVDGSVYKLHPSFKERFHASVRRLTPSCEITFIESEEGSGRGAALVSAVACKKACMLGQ
- methodSummary: Glucokinase enzyme assay, Pancreas GK data
- Type: biochemical
- experimentalSetup: compound 50 μM, percentage increase in GK activity above vehicle control, 12 mM glucose
assayMetric: activation at 50 µM (%)

Example entries and their recorded answers appear below.
compound	activation at 50 µM / %
O=C(CSC1c2ccccc2C(=O)N1Cc1ccc2c(c1)OCO2)Nc1ccccn1 (centres unmarked)	152
Cc1ccc2c(c1)C(OCC(=O)Nc1ccccn1)N(Cc1ccccc1)C2=O (centres unmarked)	8.4
O=C(CSC1c2ccccc2C(=O)N1Cc1ccc(-n2cccc2)cc1)Nc1ccccn1 (centres unmarked)	106
COc1cc(CN2C(=O)c3ccccc3C2SCC(=O)Nc2ccccn2)cc(OC)c1OC (centres unmarked)	193

[1] COc1ccc(CN2C(=O)c3ccccc3C2SCC(=O)Nc2ccc(C(=O)O)cn2)cc1OC (centres unmarked)
[2] Cc1ccc2c(c1)C(OCC(=O)Nc1cnccn1)N(Cc1ccccc1)C2=O (centres unmarked)
Task: In the pair 1 and 2 , the larger recorded activation at 50 µM belongs to which? Answer with the label corresponding to your selection.
Output: 1
(1: 219%, 2: 70%)

[P] COc1ccc(CN2C(=O)c3ccccc3C2SCC(=O)Nc2ccc(C(=O)O)cn2)cc1 (centres unmarked)
[Q] CN(C)c1ccc(CN2C(=O)c3cccc(F)c3C2SCC(=O)Nc2ccccn2)cc1 (centres unmarked)
Task: I need your help: which of the pair P , Q has higher activation at 50 µM? Respond using the label that marks the chosen record.
Output: P
(P: 246%, Q: 161%)

====

- systemUnderTest: human liver Glucokinase (GK) (Homo sapiens)
- Construct: (His)6
- methodSummary: Glucokinase enzyme assay, Liver GK data
- experimentalSetup: concentration producing 50% activation above vehicle control
assayMetric: EC50 (µM)

[a] COc1ccc(CN2C(=O)c3ccccc3C2SCC(=O)Nc2nccs2)cc1 (stereo not drawn) [Compound 29]
[b] COC(=O)c1ccc(NC(=O)COC2c3ccccc3C(=O)N2Cc2ccccc2)nc1 (stereo not drawn) [Compound 37]
Task: Hey, between a and b which has a smaller measured EC50? Reply briefly: the label of your chosen item.
Output: b
(b: 0.57 µM, a: 4.4 µM)

[I] O=C(CSC1c2ccccc2C(=O)N1Cc1ccc(Cl)cc1)Nc1nccs1 (stereo not drawn) [Compound 30]
[II] O=C(CSC1c2ccccc2C(=O)N1Cc1cccs1)Nc1nccs1 (stereo not drawn) [Compound 14]
[III] O=C(COC1c2ccccc2C(=O)N1Cc1ccccc1)Nc1ccccn1 (stereo not drawn) [Compound 23]
[IV] O=C(CSC1c2ccccc2C(=O)N1Cc1ccccc1)Nc1ccc(C(=O)O)cn1 (stereo not drawn) [Compound 19]
Task: Would you mind ranking these molecules by ascending EC50? # output: labels, in the requested order
Output: III, IV, II, I
(III: 1.76 µM, IV: 3.2 µM, II: 5 µM, I: 9.5 µM)

[A] O=C(COC1c2ccccc2C(=O)N1Cc1ccccc1)Nc1nccs1 (stereo not drawn) [Compound 28]
[B] O=C(CSC1c2ccccc2C(=O)N1Cc1cccs1)Nc1cnccn1 (stereo not drawn) [Compound 31]
Task: Select the item whose EC50 value is smaller, choosing between A and B . Reply briefly: the label of your chosen item.
Output: B
(B: 4 µM, A: 11.3 µM)

====

- systemUnderTest: human liver Glucokinase (GK) (Homo sapiens)
- Construct: (His)6; made in house; host or cells: Escherichia coli
- methodSummary: Glucokinase enzyme assay, Liver GK data
- Assay type: biochemical
- experimentalSetup: concentration producing 100% activation above vehicle control
assayMetric: EC100% (µM)

compound	systemUnderTest	EC100% (µM)
COc1ccc(CN2C(=O)c3ccccc3C2SCC(=O)Nc2nccs2)cc1 (stereo not drawn)	human liver Glucokinase (GK) (Homo sapiens)	17.6
O=C(CSC1c2ccccc2C(=O)N1Cc1cccs1)Nc1cnccn1 (stereo not drawn)	human liver Glucokinase (GK) (Homo sapiens)	12

[a] COC(=O)c1ccc(NC(=O)COC2c3ccccc3C(=O)N2Cc2ccccc2)nc1 (stereo not drawn)
[b] O=C(CSC1c2ccccc2C(=O)N1Cc1cccs1)Nc1nccs1 (stereo not drawn)
[c] O=C(COC1c2ccccc2C(=O)N1Cc1ccccc1)Nc1ccccn1 (stereo not drawn)
[d] COC(=O)c1ccc(NC(=O)CSC2c3ccccc3C(=O)N2Cc2cccs2)nc1 (stereo not drawn)
Task: Ordering: ascending EC100%. Could you list the labels in the order requested?
Output: a, d, c, b
